# Assay comment: Cytotoxicity against african green monkey Vero cells assessed as change in cell morphology
# Assay type: cell-based
# Measurement parameters: chlorocebus sabaeus
So I've got a bunch of compounds here, and I need their MCC values.
Give bare numbers, in µg/mL.

Please review the following examples before continuing.
| Smi | Quantity unit | Recorded number |
| --- | --- | --- |
| CS(=O)(=O)Nc1ccc(NC(=S)Nc2ccc([N+](=O)[O-])cc2)cc1Oc1ccccc1 | µg/mL | 40 |
| CS(=O)(=O)Nc1ccc(NC(=S)NC2CCCCC2)cc1Oc1ccccc1 | µg/mL | 8 |
| CS(=O)(=O)Nc1ccc(NC(=S)NCCc2ccc(Cl)cc2)cc1Oc1ccccc1 | µg/mL | 100 |
| CS(=O)(=O)Nc1ccc(NC(=S)NCCc2ccccc2)cc1Oc1ccccc1 | µg/mL | 8 |
| CS(=O)(=O)Nc1ccc(NC(=S)NCc2ccccc2)cc1Oc1ccccc1 | µg/mL | 40 |

Give measured MCC for every item shown.
1. CCCNC(=S)Nc1ccc(NS(C)(=O)=O)c(Oc2ccccc2)c1
2. CCNC(=S)Nc1ccc(NS(C)(=O)=O)c(Oc2ccccc2)c1
3. C=CCNC(=S)Nc1ccc(NS(C)(=O)=O)c(Oc2ccccc2)c1

[40, 200, 200]

* * *

# Test system: Human alphaherpesvirus 2
# Assay comment: Antiviral activity against Herpes simplex virus 2 infected in HEL cells assessed as protection against in virus-induced cytopathogenicity
# Format: functional
Observation type: MIC50

Before answering, review these 4 worked examples.
| Molecule | Target entity | MIC50 |
| --- | --- | --- |
| C=CCNC(=S)Nc1ccc(NS(C)(=O)=O)c(Oc2ccccc2)c1 | Human alphaherpesvirus 2 | > 40 µg/mL |
| CS(=O)(=O)Nc1ccc(NC(=S)NCCc2ccccc2)cc1Oc1ccccc1 | Human alphaherpesvirus 2 | > 8 µg/mL |
| CS(=O)(=O)Nc1ccc(NC(=S)NC2CCCCC2)cc1Oc1ccccc1 | Human alphaherpesvirus 2 | > 8 µg/mL |
| CS(=O)(=O)Nc1ccc(NC(=S)NCCc2ccc(Cl)cc2)cc1Oc1ccccc1 | Human alphaherpesvirus 2 | > 100 µg/mL |

Then there is this molecule:
Read the entry Nc1nc2c(ncn2COCCO)c(=O)[nH]1 [ACYCLOVIR] and write its reported MIC50.
0.4 µg/mL

* * *

# Tested on: Mammalian orthoreovirus 1
# Assay comment: Antiviral activity against Reovirus 1 infected in african green monkey Vero cells assessed as protection against virus-induced cytopathogenicity
# Type: functional
Observation type: MIC50

In the examples that follow, each entry is paired with its recorded MIC50.
| Compound | Target entity | MIC50 |
| --- | --- | --- |
| CNC(=S)Nc1ccc(NS(C)(=O)=O)c(Oc2ccccc2)c1 | Mammalian orthoreovirus 1 | > 100 µg/mL |
| CS(=O)(=O)Nc1ccc(NC(=S)NCc2ccccc2)cc1Oc1ccccc1 | Mammalian orthoreovirus 1 | > 8 µg/mL |
| NC(=O)c1ncn([C@@H]2O[C@H](CO)[C@@H](O)[C@H]2O)n1 | Mammalian orthoreovirus 1 | 150 µg/mL |
| CCCNC(=S)Nc1ccc(NS(C)(=O)=O)c(Oc2ccccc2)c1 | Mammalian orthoreovirus 1 | > 8 µg/mL |
| CS(=O)(=O)Nc1ccc(NC(=S)NC2CCCCC2)cc1Oc1ccccc1 | Mammalian orthoreovirus 1 | > 1.6 µg/mL |
| O=c1[nH]c(=O)n([C@H]2C[C@H](O)[C@@H](CO)O2)cc1/C=C/Br | Mammalian orthoreovirus 1 | > 250 µg/mL |

List the reported MIC50 of each compound below.
1. CS(=O)(=O)Nc1ccc(NC(=S)Nc2ccc([N+](=O)[O-])cc2)cc1Oc1ccccc1
2. CS(=O)(=O)Nc1ccc(NC(=S)NCCc2ccc(Cl)cc2)cc1Oc1ccccc1
3. CCNC(=S)Nc1ccc(NS(C)(=O)=O)c(Oc2ccccc2)c1
4. CS(=O)(=O)Nc1ccc(NC(=S)NCCc2ccccc2)cc1Oc1ccccc1
5. Nc1ncnc2c1ncn2C[C@H](O)CO [(S)-DHPA]

> 8 µg/mL
> 20 µg/mL
> 40 µg/mL
> 1.6 µg/mL
250 µg/mL

Quick one: give measured MIC50 for "C=CCNC(=S)Nc1ccc(NS(C)(=O)=O)c(Oc2ccccc2)c1"
> 40 µg/mL
